# credit: a protein production outcome set (Wang et al. 2014)

assayProcedure: label from the status in PepcDB records
parameter: protein production

MENDKHNNPKTIFIPDDIAEGIFHHLPIKSLARFKVLSKKWTSMIESTYFSHKRLIRTGLPTPNMKFLHISQHFTANFVEEYSNSITFLLETFSRDDQNNRKTFDESQNKTIQVLGSCDGLVLLRIHDDFRSIYLINPTTKEHMKLSPEFMQWPFTLSYLTPAMANKPWRQLSQSVLDYDISVKRMPSLAGFGKDIVKKSYKVVLIYTRYEIHDHEFKAKVLSLDNGEQRDVGFYDIHHCIFCDEQTSVYANGSLFWLTLKKLSQTSYQLLAIDLHTEEFRWILLPECDTKYATNIEMWNLNERLCLSDVLESSNLVVWSLHQEYPTEKWEKIYSIKIDVIRTNQLHEKFWMLGLAAAYFSNIRNRQDQVSFFRQRTISYLPTMISPSNLML = failed
MTQRRATRRRFLMGCSAIASVGLAGCTGGDESTATDSTPSPTDDGDAEPTTTTDEPPATDTATATPDQEAVETLVSVGGDRVPENMALGPDGGLYFGITAGEVRRVPAAETGATGLSLEDTEQIATLPGAIGVEAAPDGTVYVAVATQDDQAGVWEIPLDGDAAQLVEMGGFPNDIHYDADQERLLVTESQNGVVYAVTTDGERSTWLDDDRLETESFGANGITRDADGDIFVAVTRAPEETGRLLRVPVESDGAAGEPSMFFEGGAIFGADGITSRDGDIYVAANSQNRVVRVTADGTTDVVATADNGLVFPSDVLFRTGDQQESLFICNFANQSPEDGAILRTSVPR = failed
